// provenance: the supplement of paper PMC10126150

Test system: ATP;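 further: ATP exposure 15 min at 22 °C before imaging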
Test: switch fluorescence ratio, 500 uM ATP over buffer (Cy3 cluster intensity, sum of 5 cycles each) (fold (ratio)); higher = stronger signal-on switching upon ATP binding; sequences stand for … in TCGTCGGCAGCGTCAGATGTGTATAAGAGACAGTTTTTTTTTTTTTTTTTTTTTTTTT…TC
Conditions: aptamer strand: ATP DNA aptamer (quencher-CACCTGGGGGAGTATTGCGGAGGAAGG + anchor), 100 nM annealed; ATP concentration: 500 uM
Task for the reader: assign each of the following sequences its reported switch fluorescence ratio.

Inquiry: Dear colleague, please send me the reported switch fluorescence ratio for `AAACGCCATT` when you can.
Reply text: 1.13

Inquiry: Give switch fluorescence ratio for the following sequence: `TAGAGCTTAG`
Reply text: 0.981

Inquiry: Could you please provide reported switch fluorescence ratio for `TATGTGAGCT` ? Thanks!
Reply text: 1.01

Inquiry: Return the recorded switch fluorescence ratio value; entry: `CGTTTTGGGT`
Reply text: 1.01

Inquiry: Complete the entry with switch fluorescence ratio for `GAGTTGAAAA`
Reply text: 0.987

Inquiry: In one line, give reported switch fluorescence ratio of the entry `TTATGATTTA` .
Reply text: 0.943

Inquiry: In one line, give reported switch fluorescence ratio of the entry `ATACACAATT` .
Reply text: 1.08

Inquiry: Note down switch fluorescence ratio recorded for `GCTCAACGGT`
Reply text: 0.956

Inquiry: Identify the reported switch fluorescence ratio for the following entry. `TGGTGGGTCG`
Reply text: 1.08

Inquiry: Kindly indicate its recorded switch fluorescence ratio. Item: `TAATGGTGT`
Reply text: 1.02

Inquiry: Find the measured switch fluorescence ratio of `AATCATGGCG` and report it.
Reply text: 0.991
